Test system: Staphylococcus lugdunensis
Assay: MIC of baseline clinical isolates (Example 8)
Type: cell-based
Details: Staphylococcus lugdunensis baseline isolates (N′ = 3), central laboratory, mITT
Exam item: assign Satisfied to entries whose Mean MIC is below 0.8 µg/mL and Not satisfied to entries at or above 0.8 µg/mL. Note that a value of exactly 0.8 µg/mL receives Not satisfied.

Does the reported Mean MIC of `CCC[C@@H]1C[C@@H](C(=O)N[C@@H]([C@H]2O[C@H](SC)[C@H](O)[C@@H](O)[C@H]2O)[C@H](C)Cl)N(C)C1` stay below 0.8 µg/mL? Satisfied

Does the reported Mean MIC of `CN[C@H](CC(C)C)C(=O)N[C@H]1C(=O)N[C@@H](CC(N)=O)C(=O)N[C@H]2C(=O)N[C@H]3C(=O)N[C@H](C(=O)N[C@H](C(=O)O)c4cc(O)cc(O)c4-c4cc3ccc4O)[C@H](O)c3ccc(c(Cl)c3)Oc3cc2cc(c3O[C@@H]2O[C@H](CO)[C@@H](O)[C@H](O)[C@H]2O[C@H]2C[C@](C)(N)[C@H](O)[C@H](C)O2)Oc2ccc(cc2Cl)[C@H]1O` stay below 0.8 µg/mL? Not satisfied

Does the reported Mean MIC of `CC(=O)NC[C@H]1CN(c2ccc(N3CCOCC3)c(F)c2)C(=O)O1` stay below 0.8 µg/mL? Not satisfied

Does the reported Mean MIC of `COc1cc(Cc2cnc(N)nc2N)cc(OC)c1OC.Cc1cc(NS(=O)(=O)c2ccc(N)cc2)no1` stay below 0.8 µg/mL? Satisfied

Does the reported Mean MIC of `CC1(C)S[C@@H]2[C@H](NC(=O)[C@H](N)c3ccc(O)cc3)C(=O)N2[C@H]1C(=O)O.O=C(O)[C@H]1/C(=C/CO)O[C@@H]2CC(=O)N21` stay below 0.8 µg/mL? Not satisfied

Does the reported Mean MIC of `CN(C)c1ccc(O)c2c1C[C@H]1C[C@H]3[C@H](N(C)C)C(O)=C(C(N)=O)C(=O)[C@@]3(O)C(O)=C1C2=O` stay below 0.8 µg/mL? Satisfied

Does the reported Mean MIC of `CC1(C)S[C@@H]2[C@H](NC(=O)[C@H](N)c3ccccc3)C(=O)N2[C@H]1C(=O)O` stay below 0.8 µg/mL? Not satisfied

Does the reported Mean MIC of `Cc1onc(-c2ccccc2)c1C(=O)N[C@@H]1C(=O)N2[C@@H]1SC(C)(C)[C@@H]2C(=O)O` stay below 0.8 µg/mL? Not satisfied

---

Can you tell me MIC for the items I'm about to list?
System: relevant ATCC QC organisms
Assay: Broth microdilution MIC, QC (Example 6)
Assay type: cell-based
Conditions: Pseudomonas aeruginosa, ATCC27853; P. aeruginosa ATCC 27853; read-out: MIC
Write the numeric value and follow it with the unit.

Hi! What's the reported MIC for `NCC[C@H](O)C(=O)N[C@@H]1C[C@H](N)[C@@H](O[C@H]2O[C@H](CN)[C@@H](O)[C@H](O)[C@H]2O)[C@H](O)[C@H]1O[C@H]1O[C@H](CO)[C@@H](O)[C@H](N)[C@H]1O` on relevant ATCC QC organisms? 2 µg/mL

Hi! What's the reported MIC for `C[C@@H](O)[C@H]1C(=O)N2C(C(=O)O)=C(S[C@@H]3CN[C@H](C(=O)N(C)C)C3)[C@H](C)[C@H]12` on relevant ATCC QC organisms? 0.25 µg/mL

Hi! What's the reported MIC for `C[C@H]1COc2c(N3CCN(C)CC3)c(F)cc3c(=O)c(C(=O)O)cn1c23` on relevant ATCC QC organisms? 0.5 µg/mL

Hi! What's the reported MIC for `CC(C)(O/N=C(\C(=O)N[C@@H]1C(=O)N2C(C(=O)[O-])=C(C[n+]3ccccc3)CS[C@H]12)c1csc(N)n1)C(=O)O` on relevant ATCC QC organisms? 2 µg/mL

---

System: Klebsiella pneumoniae
Test: Broth microdilution MIC (Example 6)
Assay type: cell-based
Details: Klebsiella pneumoniae, K. pneumoniae CDC 129; ESBL/KPC; read-out: MIC
measurement_kind: MIC (µg/mL)
Give just the number in µg/mL; leave the unit off.

Item `NCC[C@H](O)C(=O)N[C@@H]1C[C@H](N)[C@@H](O[C@H]2O[C@H](CN)[C@@H](O)[C@H](O)[C@H]2O)[C@H](O)[C@H]1O[C@H]1O[C@H](CO)[C@@H](O)[C@H](N)[C@H]1O` has what recorded MIC? 32

Item `C[C@@H](O)[C@H]1C(=O)N2C(C(=O)O)=C(S[C@@H]3CN[C@H](C(=O)N(C)C)C3)[C@H](C)[C@H]12` has what recorded MIC? 8

---

Can you tell me MIC for the items I'm about to list?
System: vancomycin-intermediate Staphylococcus aureus
Experiment: Broth microdilution MIC (Example 6)
Assay type: cell-based
Settings: S. aureus isolate NRS 13
Give just the number in µg/mL; leave the unit off.

Item `CCCCCCCCCC(=O)N[C@@H](Cc1c[nH]c2ccccc12)C(=O)N[C@H](CC(N)=O)C(=O)N[C@@H](CC(=O)O)C(=O)N[C@@H]1C(=O)NCC(=O)N[C@@H](CCCN)C(=O)N[C@@H](CC(=O)O)C(=O)N[C@H](C)C(=O)N[C@@H](CC(=O)O)C(=O)NCC(=O)N[C@H](CO)C(=O)N[C@@H]([C@H](C)CC(=O)O)C(=O)N[C@@H](CC(=O)c2ccccc2N)C(=O)O[C@@H]1C` has what recorded MIC? 2

Item `CCC[C@@H]1C[C@@H](C(=O)N[C@@H]([C@H]2O[C@H](SC)[C@H](O)[C@@H](O)[C@H]2O)[C@H](C)Cl)N(C)C1` has what recorded MIC? 0.06

Item `CC(=O)NC[C@H]1CN(c2ccc(N3CCOCC3)c(F)c2)C(=O)O1` has what recorded MIC? 2

Item `CN[C@H](CC(C)C)C(=O)N[C@H]1C(=O)N[C@@H](CC(N)=O)C(=O)N[C@H]2C(=O)N[C@H]3C(=O)N[C@H](C(=O)N[C@H](C(=O)O)c4cc(O)cc(O)c4-c4cc3ccc4O)[C@H](O)c3ccc(c(Cl)c3)Oc3cc2cc(c3O[C@@H]2O[C@H](CO)[C@@H](O)[C@H](O)[C@H]2O[C@H]2C[C@](C)(N)[C@H](O)[C@H](C)O2)Oc2ccc(cc2Cl)[C@H]1O` has what recorded MIC? 2

---

Tested on: non-speciated Corynebacterium
Experiment: MIC of baseline clinical isolates (Example 8)
Format: cell-based
Settings: Corynebacterium non-speciated baseline isolates (N′ = 2), central laboratory, mITT
Can you tell me n (% resistant) for the items I'm about to list?

Hi! What's the reported n (% resistant) for `CC(=O)NC[C@H]1CN(c2ccc(N3CCOCC3)c(F)c2)C(=O)O1` on non-speciated Corynebacterium? 0 (0.0) n (%)

Hi! What's the reported n (% resistant) for `CC[C@H]1OC(=O)[C@H](C)[C@@H](O[C@H]2C[C@@](C)(OC)[C@@H](O)[C@H](C)O2)[C@H](C)[C@@H](O[C@@H]2O[C@H](C)C[C@H](N(C)C)[C@H]2O)[C@](C)(O)C[C@@H](C)C(=O)[C@H](C)[C@@H](O)[C@]1(C)O` on non-speciated Corynebacterium? 1 (50.0) n (%)

Hi! What's the reported n (% resistant) for `CCN1CCN(C(=O)N[C@@H](C(=O)N[C@@H]2C(=O)N3[C@@H]2SC(C)(C)[C@@H]3C(=O)O)c2ccccc2)C(=O)C1=O.C[C@]1(Cn2ccnn2)[C@H](C(=O)O)N2C(=O)C[C@H]2S1(=O)=O` on non-speciated Corynebacterium? 0 (0.0) n (%)

Hi! What's the reported n (% resistant) for `CCC[C@@H]1C[C@@H](C(=O)N[C@@H]([C@H]2O[C@H](SC)[C@H](O)[C@@H](O)[C@H]2O)[C@H](C)Cl)N(C)C1` on non-speciated Corynebacterium? 1 (50.0) n (%)

Hi! What's the reported n (% resistant) for `CO/N=C(\C(=O)N[C@@H]1C(=O)N2C(C(=O)O)=C(CSc3nc(=O)c(O)nn3C)CS[C@H]12)c1csc(N)n1` on non-speciated Corynebacterium? 0 (0.0) n (%)

Hi! What's the reported n (% resistant) for `CN[C@H](CC(C)C)C(=O)N[C@H]1C(=O)N[C@@H](CC(N)=O)C(=O)N[C@H]2C(=O)N[C@H]3C(=O)N[C@H](C(=O)N[C@H](C(=O)O)c4cc(O)cc(O)c4-c4cc3ccc4O)[C@H](O)c3ccc(c(Cl)c3)Oc3cc2cc(c3O[C@@H]2O[C@H](CO)[C@@H](O)[C@H](O)[C@H]2O[C@H]2C[C@](C)(N)[C@H](O)[C@H](C)O2)Oc2ccc(cc2Cl)[C@H]1O` on non-speciated Corynebacterium? 0 (0.0) n (%)

Hi! What's the reported n (% resistant) for `C[C@H]1COc2c(N3CCN(C)CC3)c(F)cc3c(=O)c(C(=O)O)cn1c23` on non-speciated Corynebacterium? 0 (0.0) n (%)

Hi! What's the reported n (% resistant) for `CC1(C)S[C@@H]2[C@H](NC(=O)[C@H](N)c3ccc(O)cc3)C(=O)N2[C@H]1C(=O)O.O=C(O)[C@H]1/C(=C/CO)O[C@@H]2CC(=O)N21` on non-speciated Corynebacterium? 0 (0.0) n (%)
